Recorded t1/2 drug DMPG Lip., one value per entry.
- experimental-details: HPLC assay of lactone ring hydrolysis, free in PBS or associated with liposomes or micelles
- Type: physicochemical
- measurement-parameters: DMPG liposomes, pH 7.4, 37° C.

{"compound": "CCC1(O)C(=O)OCc2c1cc1n(c2=O)Cc2cc3c(N)cccc3nc2-1 (centres unmarked)", "t1/2 drug DMPG Lip.": "0.817 h"}
{"compound": "CCC1(O)C(=O)OCc2c1cc1n(c2=O)Cc2cc3c(Cl)c4c(cc3nc2-1)OCO4 (centres unmarked)", "t1/2 drug DMPG Lip.": "> 72 h"}
{"compound": "CC[C@@]1(O)C(=O)OCc2c1cc1n(c2=O)Cc2cc3ccccc3nc2-1", "t1/2 drug DMPG Lip.": "> 72 h"}
{"compound": "CCC1(O)C(=O)OCc2c1cc1n(c2=O)Cc2cc3cc4c(cc3nc2-1)OCO4 (centres unmarked)", "t1/2 drug DMPG Lip.": "> 72 h"}
{"compound": "CC[C@@]1(O)C(=O)OCc2c1cc1n(c2=O)Cc2cc3c(CN(C)C)c(O)ccc3nc2-1", "t1/2 drug DMPG Lip.": "1.6 h"}

###

Recorded t1/2 free drug, one value per entry.
- experimental-details: HPLC assay of lactone ring hydrolysis, free in PBS or associated with liposomes or micelles
- Format: physicochemical
- measurement-parameters: lactone hydrolysis, free in PBS, pH 7.4, 37° C.
metric: t1/2 free drug (min)

{"molecule": "CCC1(O)C(=O)OCc2c1cc1n(c2=O)Cc2cc3c(N)cccc3nc2-1 (stereo not shown)", "observed-measurement": 22.5}
{"molecule": "CCC1(O)C(=O)OCc2c1cc1n(c2=O)Cc2cc3c(Cl)c4c(cc3nc2-1)OCO4 (stereo not shown)", "observed-measurement": 21.3}
{"molecule": "CC[C@@]1(O)C(=O)OCc2c1cc1n(c2=O)Cc2cc3c(CN(C)C)c(O)ccc3nc2-1", "observed-measurement": 21.1}
{"molecule": "CCC1(O)C(=O)OCc2c1cc1n(c2=O)Cc2cc3c([N+](=O)[O-])cccc3nc2-1 (stereo not shown)", "observed-measurement": 23.8}

###

- experimental-details: HPLC assay of lactone ring hydrolysis, free in PBS or associated with liposomes or micelles
- Format: physicochemical
- measurement-parameters: lactone hydrolysis, free in PBS, pH 7.4, 37° C.
metric: t1/2 free drug (min)

{"molecule": "CCC1(O)C(=O)OCc2c1cc1n(c2=O)Cc2cc3c(N)c4c(cc3nc2-1)OCO4 (stereo not shown) [9-amino-10,11-methylenedioxycamptothecin]", "metric": "t1/2 free drug", "observed-measurement": 26.9}
{"molecule": "CCC1(O)C(=O)OCc2c1cc1n(c2=O)Cc2cc3cc(O)ccc3nc2-1 (stereo not shown) [10-hydroxycamptothecin]", "metric": "t1/2 free drug", "observed-measurement": 23.9}
{"molecule": "CC[C@@]1(O)C(=O)OCc2c1cc1n(c2=O)Cc2cc3ccccc3nc2-1 [camptothecin]", "metric": "t1/2 free drug", "observed-measurement": 16.6}
{"molecule": "CCC1(O)C(=O)OCc2c1cc1n(c2=O)Cc2cc3cc4c(cc3nc2-1)OCO4 (stereo not shown) [10,11-methylenedioxycamptothecin]", "metric": "t1/2 free drug", "observed-measurement": 28.7}
